assayed target: UniProtKB O14746
Sequence (O14746 whole entry): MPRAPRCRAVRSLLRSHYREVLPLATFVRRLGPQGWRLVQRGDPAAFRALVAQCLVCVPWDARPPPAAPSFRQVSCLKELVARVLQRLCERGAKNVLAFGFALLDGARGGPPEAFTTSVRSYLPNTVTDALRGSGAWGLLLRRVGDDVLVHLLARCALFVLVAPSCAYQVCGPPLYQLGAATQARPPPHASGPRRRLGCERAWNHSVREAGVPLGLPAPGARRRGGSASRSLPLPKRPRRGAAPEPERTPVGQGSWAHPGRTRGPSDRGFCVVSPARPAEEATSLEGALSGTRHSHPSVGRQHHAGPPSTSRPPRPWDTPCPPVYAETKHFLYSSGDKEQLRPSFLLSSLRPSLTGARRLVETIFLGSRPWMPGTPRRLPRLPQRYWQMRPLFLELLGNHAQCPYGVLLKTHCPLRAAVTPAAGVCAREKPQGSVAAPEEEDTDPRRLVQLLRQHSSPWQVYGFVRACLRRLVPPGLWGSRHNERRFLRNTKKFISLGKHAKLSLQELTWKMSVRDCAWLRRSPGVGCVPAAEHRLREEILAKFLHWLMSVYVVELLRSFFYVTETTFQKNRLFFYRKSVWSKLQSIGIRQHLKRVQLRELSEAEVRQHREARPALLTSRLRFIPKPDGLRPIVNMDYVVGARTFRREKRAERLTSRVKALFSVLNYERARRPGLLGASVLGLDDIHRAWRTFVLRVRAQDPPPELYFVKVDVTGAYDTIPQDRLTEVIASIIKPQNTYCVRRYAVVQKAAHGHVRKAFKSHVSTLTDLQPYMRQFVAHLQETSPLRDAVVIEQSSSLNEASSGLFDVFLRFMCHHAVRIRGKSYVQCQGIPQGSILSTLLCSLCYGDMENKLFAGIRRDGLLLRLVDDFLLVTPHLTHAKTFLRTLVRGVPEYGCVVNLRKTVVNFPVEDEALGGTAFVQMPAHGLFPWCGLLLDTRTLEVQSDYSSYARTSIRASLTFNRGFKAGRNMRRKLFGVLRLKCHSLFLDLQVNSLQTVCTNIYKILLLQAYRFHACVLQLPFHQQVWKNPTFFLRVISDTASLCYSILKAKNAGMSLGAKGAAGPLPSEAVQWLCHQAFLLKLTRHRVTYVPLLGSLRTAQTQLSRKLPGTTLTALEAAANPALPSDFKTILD
test details: Inhibition of human tert transcriptional activity assessed as SEAP activity at 100 uM after 24 hrs by SEAP reporter assay
Design: scale not given: the % may be the effect or the level left
experimental endpoint: Activity
Include the unit after the number when you answer.

Hello, I am looking for reported Activity with UniProtKB O14746 for CCN(CC)C(=O)Sc1nc2ccc3c(c2[nH]1)C(=O)c1ccccc1C3=O . Could you help?
88%

Hello, I am looking for reported Activity with UniProtKB O14746 for Cc1ccccc1CSc1nc2ccc3c(c2[nH]1)C(=O)c1ccccc1C3=O . Could you help?
29%

Hello, I am looking for reported Activity with UniProtKB O14746 for O=C1c2ccccc2C(=O)c2c1ccc1nc(SCCN3CCCC3)[nH]c21 . Could you help?
36%

Hello, I am looking for reported Activity with UniProtKB O14746 for C#CCSc1nc2ccc3c(c2[nH]1)C(=O)c1ccccc1C3=O . Could you help?
52%

Hello, I am looking for reported Activity with UniProtKB O14746 for O=C1c2ccccc2C(=O)c2c1ccc1nc3n(c21)CCS3 . Could you help?
48%

Hello, I am looking for reported Activity with UniProtKB O14746 for CN(C)CCCSc1nc2ccc3c(c2[nH]1)C(=O)c1ccccc1C3=O . Could you help?
15%

Hello, I am looking for reported Activity with UniProtKB O14746 for O=C1c2c(O)ccc(O)c2C(=O)c2c(NCCNCCO)ccc(NCCNCCO)c21 . Could you help?
7%

Hello, I am looking for reported Activity with UniProtKB O14746 for O=C1c2ccccc2C(=O)c2c1ccc1nc(SCCCCCBr)[nH]c21 . Could you help?
41%

Hello, I am looking for reported Activity with UniProtKB O14746 for CCSc1nc2ccc3c(c2[nH]1)C(=O)c1ccccc1C3=O . Could you help?
17%

Hello, I am looking for reported Activity with UniProtKB O14746 for O=C1c2ccccc2C(=O)c2c1ccc1nc(SCC(=O)N3CCOCC3)[nH]c21 . Could you help?
40%

Hello, I am looking for reported Activity with UniProtKB O14746 for CCCSc1nc2ccc3c(c2[nH]1)C(=O)c1ccccc1C3=O . Could you help?
33%

Hello, I am looking for reported Activity with UniProtKB O14746 for O=C1c2ccccc2C(=O)c2c1ccc1nc(SCCCN3CCCCC3)[nH]c21 . Could you help?
8%

Hello, I am looking for reported Activity with UniProtKB O14746 for CCCN(CCC)C(=O)CSc1nc2ccc3c(c2[nH]1)C(=O)c1ccccc1C3=O . Could you help?
85%

Hello, I am looking for reported Activity with UniProtKB O14746 for CN1CCN(C(=O)Sc2nc3ccc4c(c3[nH]2)C(=O)c2ccccc2C4=O)CC1 . Could you help?
38%

Hello, I am looking for reported Activity with UniProtKB O14746 for O=C1c2ccccc2C(=O)c2c1ccc1nc(SC(=O)N3CCOCC3)[nH]c21 . Could you help?
71%

Hello, I am looking for reported Activity with UniProtKB O14746 for COC(=O)/C=C/CSc1nc2ccc3c(c2[nH]1)C(=O)c1ccccc1C3=O . Could you help?
64%

Hello, I am looking for reported Activity with UniProtKB O14746 for O=C(CCc1ccccc1)Sc1nc2ccc3c(c2[nH]1)C(=O)c1ccccc1C3=O . Could you help?
81%

Hello, I am looking for reported Activity with UniProtKB O14746 for Cc1cc(C(=O)Sc2nc3ccc4c(c3[nH]2)C(=O)c2ccccc2C4=O)c(C)o1 . Could you help?
89%

Hello, I am looking for reported Activity with UniProtKB O14746 for COC(=O)CCCSc1nc2ccc3c(c2[nH]1)C(=O)c1ccccc1C3=O . Could you help?
61%

Hello, I am looking for reported Activity with UniProtKB O14746 for O=C1c2ccccc2C(=O)c2c1ccc1[nH]c(=S)[nH]c21 . Could you help?
31%

Hello, I am looking for reported Activity with UniProtKB O14746 for O=C(Sc1nc2ccc3c(c2[nH]1)C(=O)c1ccccc1C3=O)c1ccccc1[N+](=O)[O-] . Could you help?
81%
